Reported values of max activity for individual entries
assay: HepG2 hepatoma cell cytotoxicity, dose response, cytotoxicity control, CellTiter-Glo luminescence, cherry-pick, set 3 (AID 720589); conditions: HepG2 viability, ATP luminescence (CellTiter-Glo), 72 h; at 26 µM; stronger effect = lower value; 0% = untreated, negative = ATP loss
# output: bare number, implied unit %

As a guide, the following entries are already answered.
{"molecule": "O=C(O)c1ccc(N/N=C/c2c[nH]c3ccccc23)cc1", "units.text": "%", "max activity": -17.3}
{"molecule": "C[C@@H]1CN([C@H](C)CO)C(=O)CCCn2nncc2CO[C@H]1CN(C)Cc1ccc(Oc2ccccc2)cc1", "units.text": "%", "max activity": -33.6}
{"molecule": "Cc1nn(-c2ccc(F)cc2)c2nc(N)c(C#N)c(-c3ccc(O)c(O)c3)c12", "units.text": "%", "max activity": -39.7}
{"molecule": "CCOc1ccc(OCc2ccc(C(=O)NN=Cc3ccc[nH]3)cc2)cc1", "units.text": "%", "max activity": -34}
{"molecule": "CCOc1ccc(C(c2c(NC(=O)c3ccccc3)sc(C)c2C)N2CCN(CCO)CC2)cc1 (configuration not stated)", "units.text": "%", "max activity": -11.9}
{"molecule": "Cc1ccc(NC(=O)CCN2CCCCC2)cc1", "units.text": "%", "max activity": 20.8}

Please turn your attention to the following entry.
Q) Any idea what max activity was measured for C[C@@H]1CN([C@@H](C)CO)C(=O)Cc2cc(N(C)C)ccc2O[C@@H]1CN(C)Cc1ccccc1 ?
A) -20.7

====

Reported values of max activity for individual entries
experiment: HepG2 hepatoma cell cytotoxicity, dose response, cytotoxicity control, CellTiter-Glo luminescence, cherry-pick, set 3 (AID 720589); conditions: HepG2 viability, ATP luminescence (CellTiter-Glo), 72 h; at 26 µM; stronger effect = lower value; 0% = untreated, negative = ATP loss
# output: bare number, implied unit %

As a guide, the following entries are already answered.
{"compound": "CC(NC(=O)c1ccco1)c1nc(-c2ccc(C(C)(C)C)cc2)no1 (stereo unspecified)", "units.text": "%", "max activity": -24.1}
{"compound": "COc1ccc(-c2ccc3c(c2)[C@H]2[C@H](CCN2S(=O)(=O)c2ccc(OC)cc2)[C@@H](CO)N3C)cc1", "units.text": "%", "max activity": -27}
{"compound": "COc1ccc(-c2nc3c(s2)CCc2onc(-c4ccc(OC)cc4)c2-3)cc1", "units.text": "%", "max activity": -25.8}

Please turn your attention to the following entry.
Q) Any idea what max activity was measured for Oc1c(Cl)cc(Cl)c2cccnc12 ?
A) -31.8

====

Reported values of max activity for individual entries
assay: HepG2 hepatoma cell cytotoxicity, dose response, cytotoxicity control, CellTiter-Glo luminescence, cherry-pick, set 3 (AID 720589); conditions: HepG2 viability, ATP luminescence (CellTiter-Glo), 72 h; at 26 µM; stronger effect = lower value; 0% = untreated, negative = ATP loss
# output: bare number, implied unit %

As a guide, the following entries are already answered.
{"compound": "CC(C)(C)c1ccc(Cn2c(=O)cnc3ccccc32)cc1", "units.text": "%", "result.value": -40.9}
{"compound": "CCCC[C@@H]1Cc2[nH][nH]c(=O)c2[C@H](c2ccc3ccccc3c2)O1", "units.text": "%", "result.value": 22}
{"compound": "CC(C)N1C/C(=C/c2cccnc2)C(=O)/C(=C/c2cccnc2)C1", "units.text": "%", "result.value": -29.5}

Q) Any idea what max activity was measured for CC(C)(C)c1ccc(Oc2ccc(NC(=O)C3CC=CCC3C(=O)O)cc2)cc1 (stereo not given) ?
A) 17.4

Q) Any idea what max activity was measured for COc1ccc(Cl)cc1S(=O)(=O)Nc1ccc2c(c1)n(C)c(=O)n2C ?
A) -15.6

====

Reported values of max activity for individual entries
assay: HepG2 hepatoma cell cytotoxicity, dose response, cytotoxicity control, CellTiter-Glo luminescence, cherry-pick, set 3 (AID 720589); details: HepG2 viability, ATP luminescence (CellTiter-Glo), 72 h; at 26 µM; stronger effect = lower value; 0% = untreated, negative = ATP loss
# output: bare number, implied unit %

As a guide, the following entries are already answered.
{"compound": "C=CCOc1ccccc1C(=O)/C=C1/C(=O)Nc2ccccc21", "result.value": -31.5}
{"compound": "Cc1c(N=Cc2cc(Br)cc(Br)c2O)cccc1C(=O)O", "result.value": -9.11}
{"compound": "COc1ccc(/C=C(/C(=O)c2cccs2)N2C=CC=CC2=C(C#N)C#N)cc1", "result.value": -33.6}
{"compound": "O=C(O)c1cccc(N/N=C/c2cccs2)c1", "result.value": -13.2}
{"compound": "Cc1ccc(C(CC(=O)O)Nc2nc(N3CCOCC3)nc(N3CCOCC3)n2)cc1 (stereo not drawn)", "result.value": 36.9}

Q) Any idea what max activity was measured for CC(=O)ON=C1C=CC(=C(C#N)c2ccccc2)C=C1 ?
A) -27.6

Q) Any idea what max activity was measured for O=c1c(Cl)cc(Cl)nn1-c1ccccc1 ?
A) -34.4

Q) Any idea what max activity was measured for O=c1[nH]c(=O)n(C2C[C@H](O)[C@@H](CO)O2)cc1C(F)(F)F (stereo partly drawn) ?
A) -30.8

Q) Any idea what max activity was measured for COc1cc2oc3cc(C#Cc4ccc(N)cc4)ccc3c(=O)c2cc1OC ?
A) -39.4

Q) Any idea what max activity was measured for CN1c2ccc(-c3ccc(C#N)cc3)cc2[C@H]2[C@H](CCN2S(=O)(=O)c2cccc(F)c2)[C@@H]1CO ?
A) 33.3

Q) Any idea what max activity was measured for Cc1ccccc1S(=O)(=O)N1CC[C@@H]2[C@@H](CO)Nc3ccc(-c4ccc(C#N)cc4)cc3[C@@H]21 ?
A) -21.8

Q) Any idea what max activity was measured for CC1=NN(c2ccc(C)cc2)C(=O)/C1=C\C=C\c1ccccc1 ?
A) -23.5

Q) Any idea what max activity was measured for O=C(CN1C(=O)c2ccccc2S1(=O)=O)c1ccc(F)cc1 ?
A) 20.9

Q) Any idea what max activity was measured for O=C(CCCN1C(=O)/C(=C/c2ccccc2Cl)SC1=S)NNC(=O)c1ccc(Cl)cc1 ?
A) 22.9

Q) Any idea what max activity was measured for CCN(CC)c1ccc(C2NC(=O)c3ccccc3N2)cc1 (stereo not drawn) ?
A) -26.4

Q) Any idea what max activity was measured for CCCn1nnc(NC(=S)NC(=O)C(C)(C)C)n1 ?
A) -35.2

Q) Any idea what max activity was measured for Cc1ccc2nc(-c3ccccc3)nn2c1 ?
A) -45.7

Q) Any idea what max activity was measured for O=C1CCC2S/C(=C/Nc3ccc(C(F)(F)F)cc3)C(=O)N12 (stereo not drawn) ?
A) 25.6

Q) Any idea what max activity was measured for O=C(O)c1ccc(N/N=C/c2ccc3nccnc3c2)cc1 ?
A) -27.1

Q) Any idea what max activity was measured for O=c1cc(-c2ccccc2)oc2ccc3ccccc3c12 ?
A) -21.9

Q) Any idea what max activity was measured for CC1=NN(c2ccccc2)C(=O)/C1=C\C=C\c1ccccc1 ?
A) -54.8

Q) Any idea what max activity was measured for C(=N\Nc1ccc2ccccc2n1)/c1ccc2c(c1)OCCO2 ?
A) -26.2

Q) Any idea what max activity was measured for Cc1cc(C(=O)CN2C(=O)c3ccccc3S2(=O)=O)c(C)n1C(C)C ?
A) 17.7

====

test: HepG2 hepatoma cell cytotoxicity, dose response, cytotoxicity control, CellTiter-Glo luminescence, cherry-pick, set 3 (AID 720589); conditions: HepG2 viability, ATP luminescence (CellTiter-Glo), 72 h; at 26 µM; stronger effect = lower value; 0% = untreated, negative = ATP loss
Active and inactive are the calls of the source.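 How the source made its calls: active means fitted curve drops below -35% activity at a concentration within twice the top valid tested dose; inconclusive means no clear call, values can overlap the other calls; inactive means signal rising instead of falling, among other cases.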
Reported values of max activity for individual entries

{"molecule": "COC(=O)Cc1[nH]n(-c2nc3ccccc3s2)c(=O)c1C(C)=Nc1ccc(OC)cc1", "max activity": "-20.2% (inactive)"}
{"molecule": "N#CC1=C(N)Oc2cc(N)ccc2C1c1cccc(Br)c1 (centres undefined)", "max activity": "-27% (inactive)"}
{"molecule": "O=C(C[C@H]1C[C@H]2c3cc(NS(=O)(=O)c4ccc(F)cc4)ccc3O[C@H]2[C@H](CO)O1)NCc1ccc(Oc2ccccc2)cc1", "max activity": "21.5% (inactive)"}
{"molecule": "O=C(N/N=C/c1ccc[nH]1)c1cc(-c2ccc(Cl)cc2)nc2ccccc12", "max activity": "-21.3% (inactive)"}
{"molecule": "Cc1ccc2oc(/N=C(\\N)NC(=O)C(C)(C)C)nc2c1", "max activity": "-11.8% (inactive)"}
{"molecule": "CCCCCCCCn1c2c(c(=N)c3c1CCC3)CCCC2", "max activity": "-46.7% (inactive)"}

Q) Any idea what max activity was measured for CC(=O)Oc1ccc(-c2ccc(C(=O)Nc3cccc(S(=O)(=O)N4CCOCC4)c3)cc2)cc1 ?
A) -21.6% (inactive)

Q) Any idea what max activity was measured for Cc1ccc(/C=C/C(=O)N2CCN(S(=O)(=O)c3c(C)c(C)cc(C)c3C)CC2)o1 ?
A) -14.8% (inactive)

Q) Any idea what max activity was measured for CCNC(=O)[C@@H]1[C@@H](CO)[C@@H]2Cn3c(ccc(C4=CCCCC4)c3=O)[C@H]1N2CC ?
A) -22.3% (inactive)
